B1: LINE1-mini (parent)
chain: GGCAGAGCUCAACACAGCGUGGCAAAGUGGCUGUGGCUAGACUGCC

variants of: B1; test: self-cleavage, relative activity (ratio to wild type); higher = more cleavage; in vitro, sequencing; the parent is a self-cleaving ribozyme
Catalogue of variants with associated self-cleavage
assayMetric: self-cleavage

INSERT INTO assay_data (mutantname, assaymetric, observedvalue) VALUES
  ('G22A U43C', 'self-cleavage', 0.07),
  ('U9A C45G', 'self-cleavage', 0.32),
  ('G5C C23A', 'self-cleavage', 0.07),
  ('A14C A25C', 'self-cleavage', 0.07),
  ('A26G A39G', 'self-cleavage', 0.05),
  ('C3A U28C', 'self-cleavage', 0.32),
  ('G2U G33A', 'self-cleavage', 0.03),
  ('A12C C37G', 'self-cleavage', 0.02),
  ('C3A A26G', 'self-cleavage', 0.67),
  ('A6U U20G', 'self-cleavage', 0.55),
  ('G2C C10U', 'self-cleavage', 0.03),
  ('G35C C42U', 'self-cleavage', 0.05),
  ('U9C U32C', 'self-cleavage', 0.04),
  ('G19C A39U', 'self-cleavage', 0.28),
  ('A41G C45G', 'self-cleavage', 0.05),
  ('A26G C46A', 'self-cleavage', 1.08),
  ('A26G C31A', 'self-cleavage', 0.11),
  ('C13U C31A', 'self-cleavage', 0.05),
  ('A4C G35C', 'self-cleavage', 0.11),
  ('A11G C37U', 'self-cleavage', 0.05),
  ('C13A G44C', 'self-cleavage', 0.07),
  ('C13U C18U', 'self-cleavage', 0.12),
  ('A25U A41C', 'self-cleavage', 0.07),
  ('G7A U34C', 'self-cleavage', 0.09),
  ('C13A C18G', 'self-cleavage', 0.12),
  ('C3U G30U', 'self-cleavage', 0.5),
  ('A4U A12C', 'self-cleavage', 0.03);
